assay: gradient 5% acetonitrile 3 min, to 50% in 2 min, to 85% in 15 min, held 3 min, 100 µL/min; conditions: column: Zorbax Extend-C18 2.1 x 50 mm; eluents: water / acetonitrile, 0.1% formic acid
Some compounds, each annotated with its measured RP-LC retention time.
I only need the number, in s, no unit after it.

Input line: What value of measured RP-LC retention time is listed for `O=C(NC1CC1)[C@@H]1C[C@H](Oc2ccccc2)CN1C(=O)c1ccc2ncccc2c1` ?
Output line: 649

Input line: Request: `COc1ccc(-c2cc(C(=O)N3CCN(S(=O)(=O)c4ccc(C(C)(C)C)cc4)CC3)[nH]n2)cc1`
Output line: 1030

Input line: Request: `O=C(NCC#CCN1CCc2ccccc2C1)c1ccc(Cl)s1`
Output line: 587

Input line: Request: `Cc1nc(-c2noc(-c3ccccc3)n2)cn1CC(=O)Nc1ccc(Cl)cc1`
Output line: 885

Input line: Request: `Cc1ccc(-c2nnc(SCc3noc(CCC(=O)Nc4cc(C)on4)n3)o2)cc1`
Output line: 846

Input line: Request: `O=C(C1=NNc2ccccc2S1(=O)=O)N1CCCCC1`
Output line: 773

Input line: Request: `COc1ccc(N(C)c2nnc(-c3ccc(NC(=O)c4ccco4)cc3)s2)cc1`
Output line: 712

Input line: Request: `Cc1ccc(S(=O)(=O)N2CCC(C(=O)NCc3cscn3)CC2)cc1C`
Output line: 748

Input line: Request: `O=C(CSc1nnc(-c2ccccc2F)o1)NC1CCCCC1`
Output line: 782

Input line: Request: COc1ccc2c(c1)C1(CCN(S(=O)(=O)c3c(C)noc3C)C1)C(=O)N2C (stereo not given)
Output line: 877

Input line: Request: `O=C(C1=NNc2cc(Cl)ccc2S1(=O)=O)N1CCOCC1`
Output line: 664

Input line: Request: COc1cccc(N2CC(C(=O)Nc3nnc(SCc4ccccc4)s3)CC2=O)c1 (stereo not given)
Output line: 820

Input line: Request: `FC(F)(F)c1cccc(Nc2c(-c3ccc(Cl)cc3)nc3cnccn23)c1`
Output line: 1090

Input line: Request: CC1(C(=O)NCc2ccc(F)cc2)CN(S(C)(=O)=O)CC(=O)N1c1cccc(F)c1 (stereo not given)
Output line: 764

Input line: Request: `Cc1cc(C(=O)NC(C)C)c2cc(F)ccc2n1`
Output line: 639

====

experiment: gradient 5% acetonitrile 3 min, to 50% in 2 min, to 85% in 15 min, held 3 min, 100 µL/min; details: column: Zorbax Extend-C18 2.1 x 50 mm; eluents: water / acetonitrile, 0.1% formic acid
READOUT KIND: RP-LC retention time (s)
I only need the number, in s, no unit after it.

Some compounds with recorded RP-LC retention time:
Cc1noc(C)c1C(=O)N1CCCn2ccnc2C1C1CCCC1 (stereo not given)
587
CN(C)CCNC(=O)c1ccc(-c2ccc(N3CCCCCC3)nc2)cc1
560
CC(C)NC(=O)CCC(=O)N1CCCn2nc(-c3cn(C)c4ccccc34)cc21
718

Input line: What value of measured RP-LC retention time is listed for `Cn1ncc2c3ccccc3n(CC(=O)NCCc3c[nH]c4ccc(Cl)cc34)c2c1=O` ?
Output line: 860

Input line: Request: `COc1cc(OC)c(NC(=O)N2CCN(CCn3c(C(C)C)nc4cccnc43)CC2)cc1Cl`
Output line: 618
